Sourced from patent US9944610B2

Experiment: Particle size analysis (PSD), Malvern Mastersizer
Type: physicochemical
Settings: co-milled with 1.0 % w/w magnesium stearate
Measurement Name: d10 (µm)
Unit µm implied. Number only.

Param item = CC[N+]1(CC)CCCN(c2ccccc2)CC1 ; retrieve measured d10.
0.9

----------
Experiment: Particle size analysis (PSD), Malvern Mastersizer
Type: physicochemical
Settings: milled, 0.0 % magnesium stearate
Measurement Name: d10 (µm)
Return type: number; implicit unit µm.

Report d10 for CC[N+]1(CC)CCCN(c2ccccc2)CC1 please.
0.97

----------
Experiment: Particle size analysis (PSD), Malvern Mastersizer
Type: physicochemical
Settings: co-milled with 1.0 % w/w magnesium stearate
Measurement Name: d50 (µm)
Enter your answer as a number in µm; do not include the unit.

What d50 value was documented for this compound, CC[N+]1(CC)CCCN(c2ccccc2)CC1 ?
1.7

----------
Experiment: Particle size analysis (PSD), Malvern Mastersizer
Format: physicochemical
Conditions: co-milled with 0.2 % w/w magnesium stearate
Measurement Name: d90 (µm)
Use µm as the unit, but write only the number.

// returns reported d90 for input CC[N+]1(CC)CCCN(c2ccccc2)CC1 [ASM-024]
3.33

----------
Experiment: Particle size analysis (PSD), Malvern Mastersizer
Type: physicochemical
Details: co-milled with 2.0 % w/w magnesium stearate
Measurement Name: d50
Answer with the number, then the unit.

Query (molecule): CC[N+]1(CC)CCCN(c2ccccc2)CC1 [ASM-024] ; field requested: d50
1.69 µm

----------
Test: Particle size analysis (PSD), Malvern Mastersizer
Assay type: physicochemical
Conditions: co-milled with 0.2 % w/w magnesium stearate
Measurement Name: d10
Note to self: number, then unit, no commentary.

Which value of d10 has been reported for CC[N+]1(CC)CCCN(c2ccccc2)CC1 [ASM-024] in the records?
0.89 µm

----------
Experiment: Particle size analysis (PSD), Malvern Mastersizer
Type: physicochemical
Settings: co-milled with 0.2 % w/w magnesium stearate
Measurement Name: d50 (µm)
Answer format: numeric, µm implied, no suffix.

Could you tell me which d50 is on file for CC[N+]1(CC)CCCN(c2ccccc2)CC1 ?
1.74

----------
Experiment: Particle size analysis (PSD), Malvern Mastersizer
Type: physicochemical
Conditions: co-milled with 2.0 % w/w magnesium stearate
Measurement Name: d90
Please don't drop the unit; write it after the number.

What value of measured d90 is listed for CC[N+]1(CC)CCCN(c2ccccc2)CC1 [ASM-024] ?
3.11 µm
